The values you see were collected from the RNAGym collection of RNA variant scans (doi:10.7554/elife.80360).

B1: Hairpin Ribozyme (parent)
chain: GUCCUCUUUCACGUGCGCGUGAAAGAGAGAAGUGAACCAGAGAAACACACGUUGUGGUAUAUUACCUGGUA

# Variants of: B1
# experimental_details: self-cleavage, relative activity (ratio to wild type); higher = more cleavage; co-transcriptional
measured_quantity: self-cleavage

> print(dat)
    mutation.list  result
 1      A30C U60C   0.279
 2       U5C G32U   0.132
 3      A23C G29C   0.126
 4      G15U A30C   0.173
 5       U5G G32A  0.0653
 6      A11G A39G   0.323
 7      C18U A30C    0.21
 8      U20A A43U  0.0666
 9      G25A U55C   0.208
10      G54A G57U    0.27
11       U7A C18G   0.802
12       C6U U33A   0.148
13      G56C U63C    0.17
14      C18U A47C   0.474
15       G1A A59G   0.237
16      A30C G40U  0.0963
17      A26G A41C    1.25
18      A61U G68C   0.191
19      U63C A64U   0.185
20      A30C U67C  0.0679
21      G25A C38U   0.283
22      G40U U60C   0.148
